- tested-target: His6-tagged ClpC1-NTD substrate, M. smegmatis ClpC1P1P2 (UniProt A0R574+P9WPC9)
- Sequence (P9WPC9 1-156, looked up, natural form): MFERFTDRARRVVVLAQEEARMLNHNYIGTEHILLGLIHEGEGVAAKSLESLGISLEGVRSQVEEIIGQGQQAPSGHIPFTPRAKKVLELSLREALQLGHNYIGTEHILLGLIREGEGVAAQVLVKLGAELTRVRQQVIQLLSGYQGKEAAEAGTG
- Sequence (A0R574 whole entry): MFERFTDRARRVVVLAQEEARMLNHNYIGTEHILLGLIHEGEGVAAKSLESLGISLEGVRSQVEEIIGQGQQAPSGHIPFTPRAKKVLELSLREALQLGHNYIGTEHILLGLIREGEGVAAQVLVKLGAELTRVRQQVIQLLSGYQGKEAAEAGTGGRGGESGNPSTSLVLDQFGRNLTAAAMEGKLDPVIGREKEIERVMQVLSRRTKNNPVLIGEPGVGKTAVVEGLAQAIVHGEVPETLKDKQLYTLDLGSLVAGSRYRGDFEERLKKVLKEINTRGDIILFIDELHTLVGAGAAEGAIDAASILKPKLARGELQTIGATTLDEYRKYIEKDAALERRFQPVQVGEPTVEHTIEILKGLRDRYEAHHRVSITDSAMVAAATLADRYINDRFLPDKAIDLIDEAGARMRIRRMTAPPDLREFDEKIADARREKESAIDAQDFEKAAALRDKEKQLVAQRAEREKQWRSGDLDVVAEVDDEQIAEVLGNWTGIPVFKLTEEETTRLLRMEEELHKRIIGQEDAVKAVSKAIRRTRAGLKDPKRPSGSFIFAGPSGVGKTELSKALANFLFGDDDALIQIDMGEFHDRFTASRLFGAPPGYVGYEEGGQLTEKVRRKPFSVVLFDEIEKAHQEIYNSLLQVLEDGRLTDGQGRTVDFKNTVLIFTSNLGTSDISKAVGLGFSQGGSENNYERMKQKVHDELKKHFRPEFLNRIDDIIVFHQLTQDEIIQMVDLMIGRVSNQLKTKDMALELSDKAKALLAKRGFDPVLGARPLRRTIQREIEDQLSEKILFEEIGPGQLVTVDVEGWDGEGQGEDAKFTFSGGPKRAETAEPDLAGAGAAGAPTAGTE
- test-details: biochemical
- Format: biochemical
- protocol-conditions: Msm; mean of the measurements; read-out: DC50, Mean
experimental-endpoint: DC50 (µM)
Give bare numbers, in µM.

Query block: Lab note: record DC50 of CO[C@H](c1ccccc1)[C@@H]1NC(=O)[C@H](C)NC(=O)[C@H](C[C@@H](C)CO)N(C)C(=O)[C@H](Cc2cn(C)c3ccccc23)NC(=O)[C@H](Cc2cn(CCOCCOCCn3cc(C[C@@H]4NC(=O)[C@H](CC(C)C)N(C)C(=O)[C@H](C(C)C)NC(=O)[C@H]([C@H](OC)c5ccccc5)NC(=O)[C@H](C)NC(=O)[C@H](C[C@@H](C)CO)N(C)C(=O)[C@H](Cc5cn(C)c6ccccc56)NC4=O)nn3)nn2)NC(=O)[C@H](CC(C)C)N(C)C(=O)[C@H](C(C)C)NC1=O tested on His6-tagged ClpC1-NTD substrate, M. smegmatis ClpC1P1P2 (UniProt A0R574+P9WPC9).
Result block: 5.6

---

- Test system: Mtb (moxR) FNDR-M1
- test-details: microbe, parasite or virus in culture
- Assay type: cell-based
- protocol-conditions: M. tuberculosis FNDR-M1; single well replicates
Where a SMILES comes first, the peptide text is derived from it. [ ]: non-standard residue; d: D form. NMeLeu(5-OH,4R) = CN[C@@H](C[C@@H](C)CO)C(=O)O; Phe(βR-OMe) = CO[C@H](c1ccccc1)[C@H](N)C(=O)O; Trp(1-Me) = Cn1cc(C[C@H](N)C(=O)O)c2ccccc21; NMeL = CN[C@@H](CC(C)C)C(=O)O; Pra = C#CC[C@H](N)C(=O)O
Please provide measured MIC for the entries that follow.
Numbers only, in µM.

Examples from the recorded data:
[[record]]
molecule = "NNC(=O)c1ccncc1"
observed = 0.11

[[record]]
molecule = "COC(c1ccccc1)C1NC(=O)C(C)NC(=O)C(CC(C)CO)N(C)C(=O)C(Cc2cn(Cc3cn(CCOCCOCCOCCOCCn4cc(Cn5cc(CC6NC(=O)C(C(C)C)NC(=O)C(CC(C)C)N(C)C(=O)C(C(C)C)NC(=O)C(C(OC)c7ccccc7)NC(=O)C(C)NC(=O)C(CC(C)CO)N(C)C6=O)c6ccccc65)nn4)nn3)c3ccccc23)NC(=O)C(C(C)C)NC(=O)C(CC(C)C)N(C)C(=O)C(C(C)C)NC1=O (centres unmarked)"
observed = 0.195

[[record]]
molecule = "COC(c1ccccc1)C1NC(=O)C(C)NC(=O)C(CC(C)CO)N(C)C(=O)C(Cc2cn(C)c3ccccc23)NC(=O)C(Cc2cn(CCCCCn3cc(CC4NC(=O)C(CC(C)C)N(C)C(=O)C(C(C)C)NC(=O)C(C(OC)c5ccccc5)NC(=O)C(C)NC(=O)C(CC(C)CO)N(C)C(=O)C(Cc5cn(C)c6ccccc56)NC4=O)nn3)nn2)NC(=O)C(CC(C)C)N(C)C(=O)C(C(C)C)NC1=O (centres unmarked)"
observed = 0.195


# map each molecule to its MIC
1. COc1c(N2C[C@@H]3CCCN[C@@H]3C2)c(F)cc2c(=O)c(C(=O)O)cn(C3CC3)c12 [Moxifloxacin, reference compound]
2. C#CC[C@@H]1NC(=O)[C@H](CC(C)C)N(C)C(=O)[C@H](C(C)C)NC(=O)[C@H]([C@H](OC)c2ccccc2)NC(=O)[C@H](C)NC(=O)[C@H](C[C@@H](C)CO)N(C)C(=O)[C@H](Cc2cn(C)c3ccccc23)NC1=O [Compound 10] (cyclo(A[Phe(βR-OMe)]V[NMeL][Pra][Trp(1-Me)][NMeLeu(5-OH,4R)]))

Result block:
19.93
1.56
